molecular target: UniProt:P00533
Sequence (P00533 669-1210 limits assumed): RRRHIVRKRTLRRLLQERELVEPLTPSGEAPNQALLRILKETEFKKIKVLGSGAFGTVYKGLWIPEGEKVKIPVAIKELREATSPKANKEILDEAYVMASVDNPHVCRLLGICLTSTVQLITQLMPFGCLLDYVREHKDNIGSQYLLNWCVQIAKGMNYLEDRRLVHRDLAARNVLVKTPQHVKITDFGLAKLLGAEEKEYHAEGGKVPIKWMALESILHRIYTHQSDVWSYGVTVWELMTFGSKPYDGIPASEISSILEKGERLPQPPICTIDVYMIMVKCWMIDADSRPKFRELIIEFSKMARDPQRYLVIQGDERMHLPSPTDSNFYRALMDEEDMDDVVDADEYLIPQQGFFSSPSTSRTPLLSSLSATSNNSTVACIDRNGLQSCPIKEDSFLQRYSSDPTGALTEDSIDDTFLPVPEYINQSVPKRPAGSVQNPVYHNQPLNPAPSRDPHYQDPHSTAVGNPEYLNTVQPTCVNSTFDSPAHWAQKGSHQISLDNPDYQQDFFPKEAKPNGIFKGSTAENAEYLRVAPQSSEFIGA
pIC50: −log10 of the molar value.
property: pIC50

// known answers, use as guide
compound: COc1ccc(F)cc1C(=O)NCc1ccc(-c2ncc(-c3ccn(CC(=O)N(C)C)n3)c3[nH]nc(N)c23)cc1
assay.system: UniProt:P00533
property: pIC50
result: 6.30 to 7.30
//
compound: COc1ccc(F)cc1C(=O)NCc1ccc(-c2nc(C(F)F)c(-c3ncccn3)c3[nH]nc(N)c23)cc1
assay.system: UniProt:P00533
property: pIC50
result: < 6.30
//
compound: COc1ccc(F)cc1C(=O)NCc1ccc(-c2nc(C(C)C(F)(F)F)c(-c3ccn(C)n3)c3[nH]nc(N)c23)cc1 (single isomer, unassigned) [Example 6-1]
assay.system: UniProt:P00533
property: pIC50
result: < 6.30

Q: Name the recorded pIC50 of COc1ccc(F)cc1C(=O)NCc1ccc(-c2ncc(-c3ccc(C(=O)N4C[C@@H](C)O[C@H](C)C4)cn3)c3[nH]nc(N)c23)cc1 , assay system UniProt:P00533.
A: 6.30 to 7.30

Q: Fill: pIC50 (UniProt:P00533) for this compound COc1ccc(F)cc1C(=O)NCc1ccc(-c2nc(C(C)C(F)(F)F)c(-c3ncccn3)c3[nH]nc(N)c23)cc1 (single isomer, unassigned) [Example 7-1]
A: < 6.30

Q: Provide the reported pIC50 (system: UniProt:P00533) for COc1ccc(F)cc1C(=O)NCc1ccc(-c2ncc(-c3nc4ccccc4s3)c3[nH]nc(N)c23)cc1
A: 6.30 to 7.30

###

target: BTK T474I (Homo sapiens, UniProt Q06187, T474I); experiment: Kinase activity inhibition assay (HTRF TK Kit)
Sequence (Q06187 whole entry T474I): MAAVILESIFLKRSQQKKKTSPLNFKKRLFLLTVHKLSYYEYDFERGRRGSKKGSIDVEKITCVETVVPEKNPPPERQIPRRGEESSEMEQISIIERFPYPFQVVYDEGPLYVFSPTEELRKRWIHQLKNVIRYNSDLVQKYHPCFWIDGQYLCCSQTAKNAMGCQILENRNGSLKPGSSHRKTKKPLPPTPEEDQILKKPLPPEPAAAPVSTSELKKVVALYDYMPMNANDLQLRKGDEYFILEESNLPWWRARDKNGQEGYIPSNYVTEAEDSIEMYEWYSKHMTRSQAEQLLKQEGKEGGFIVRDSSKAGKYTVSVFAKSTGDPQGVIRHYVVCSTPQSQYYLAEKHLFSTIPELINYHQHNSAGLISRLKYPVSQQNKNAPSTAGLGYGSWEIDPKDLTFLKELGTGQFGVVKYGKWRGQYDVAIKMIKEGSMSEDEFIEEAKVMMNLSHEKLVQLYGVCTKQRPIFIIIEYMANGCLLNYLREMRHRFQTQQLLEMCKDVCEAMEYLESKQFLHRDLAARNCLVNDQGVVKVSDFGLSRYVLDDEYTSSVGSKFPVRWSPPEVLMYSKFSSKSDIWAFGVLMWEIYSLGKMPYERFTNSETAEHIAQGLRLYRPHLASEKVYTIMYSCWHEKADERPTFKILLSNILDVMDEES
property: IC50

molecule: COc1ccc(F)cc1C(=O)NCc1ccc(-c2ncc(-c3nc4ccccn4n3)c3[nH]nc(N)c23)cc1
assay.system: BTK T474I (Homo sapiens, UniProt Q06187, T474I)
property: IC50
result: 0.005 to 0.05 µM
//
molecule: COc1ccc(F)cc1C(=O)NCc1ccc(-c2ncc(-c3ccn(CC(=O)N(C)C)n3)c3[nH]nc(N)c23)cc1
assay.system: BTK T474I (Homo sapiens, UniProt Q06187, T474I)
property: IC50
result: 0.05 to 0.5 µM
//
molecule: COc1ccc(F)cc1C(=O)NCc1ccc(-c2nc(C(C)C(F)(F)F)cc3[nH]nc(N)c23)cc1 (stereo not shown) [Example 1]
assay.system: BTK T474I (Homo sapiens, UniProt Q06187, T474I)
property: IC50
result: > 0.5 µM

Q: Give the value of IC50 reported for the following: COc1ccc(F)cc1C(=O)NCc1ccc(-c2ncc(-c3ccc(C(F)(F)F)cn3)c3[nH]nc(N)c23)cc1
A: 0.05 to 0.5 µM

###

As shown below, each of these compounds has a reported pIC50 value.
biological target: UniProt P42680
Sequence (P42680 whole entry): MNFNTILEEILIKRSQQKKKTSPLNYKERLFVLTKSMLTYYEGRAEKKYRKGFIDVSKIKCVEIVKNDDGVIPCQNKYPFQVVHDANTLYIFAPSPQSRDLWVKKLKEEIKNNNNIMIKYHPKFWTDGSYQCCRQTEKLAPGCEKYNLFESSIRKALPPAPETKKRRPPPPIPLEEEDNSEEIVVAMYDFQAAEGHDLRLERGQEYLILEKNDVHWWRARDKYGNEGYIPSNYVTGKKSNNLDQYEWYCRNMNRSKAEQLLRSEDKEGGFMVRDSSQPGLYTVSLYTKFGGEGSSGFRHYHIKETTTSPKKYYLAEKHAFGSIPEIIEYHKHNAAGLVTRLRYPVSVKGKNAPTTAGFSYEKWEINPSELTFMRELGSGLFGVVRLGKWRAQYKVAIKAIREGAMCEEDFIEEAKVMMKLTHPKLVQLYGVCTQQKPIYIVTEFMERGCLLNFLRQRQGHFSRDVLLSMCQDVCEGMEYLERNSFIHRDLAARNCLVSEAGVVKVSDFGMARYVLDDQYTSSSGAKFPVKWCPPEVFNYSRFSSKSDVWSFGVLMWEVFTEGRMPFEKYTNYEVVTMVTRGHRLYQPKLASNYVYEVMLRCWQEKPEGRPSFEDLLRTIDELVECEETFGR
pIC50: −log10 of the molar value.

compound: COc1ccc(F)cc1C(=O)NCc1ccc(-c2ncc(-c3ccn(CC(F)(F)F)n3)c3[nH]nc(N)c23)cc1 [Example 28]
property: pIC50
result: 7.30 to 8.30
--
compound: COc1ccc(F)cc1C(=O)NCc1ccc(-c2ncc(-c3ccc(C(F)F)cn3)c3[nH]nc(N)c23)cc1 [Example 48]
property: pIC50
result: 7.30 to 8.30
--
compound: COc1ccc(F)cc1C(=O)NCc1ccc(-c2nc(C3CCOCC3)cc3[nH]nc(N)c23)cc1 [Example 115]
property: pIC50
result: 6.30 to 7.30

Continue with the next compound.
Q: Tell me measured pIC50 for COCCOc1ccc(-c2cnc(-c3ccc(CNC(=O)c4cc(F)ccc4OC)cc3)c3c(N)n[nH]c23)nc1 [Example 59] please.
A: 7.30 to 8.30
